Attribute: Relative Binding Index (RBI)
Test system: receptor labeled by the radioiodinated analogue of 1 (4, [125I]-YLFQPQRF-NH2); neuropeptide FF receptor
Experiment: Competitive radioligand binding against 4 ([125I]Y8F-amide)
Conditions: mixture-based positional scanning; difference from averaged radioligand displacement of whole library (0); about 80 a.u. = 10-fold change in Ki
Peptide text beside a SMILES is read from it. * marks the point of attachment. Dansyl = CN(C)c1cccc2c(S(=O)(=O)*)cccc12
QUANTITY_KIND: Relative Binding Index (RBI)

INSERT INTO results (compound, quantity_kind, assay_result) VALUES
  ('CN(C)c1cccc2c(S(=O)(=O)N[C@@H](CCCNC(=N)N)C(=O)N[C@@H](CC(=O)O)C(=O)N[C@@H](CCCNC(=N)N)C(N)=O)cccc12 [Dansyl-RDR-amide] (Dansyl-Arg-Asp-Arg-NH2)', 'Relative Binding Index (RBI)', '−11 a.u.'),
  ('C[C@H](NC(=O)[C@H](CCC(=O)O)NS(=O)(=O)c1cccc2c(N(C)C)cccc12)C(=O)N[C@@H](CCCNC(=N)N)C(N)=O [Dansyl-EAR-amide] (Dansyl-Glu-Ala-Arg-NH2)', 'Relative Binding Index (RBI)', '−32 a.u.'),
  ('CC[C@H](C)[C@H](NC(=O)[C@H](Cc1ccc(O)cc1)NS(=O)(=O)c1cccc2c(N(C)C)cccc12)C(=O)N[C@@H](CCCNC(=N)N)C(N)=O [Dansyl-YIR-amide] (Dansyl-Tyr-Ile-Arg-NH2)', 'Relative Binding Index (RBI)', '13 a.u.'),
  ('CN(C)c1cccc2c(S(=O)(=O)N[C@@H](CO)C(=O)N[C@@H](CC(N)=O)C(=O)N[C@@H](CCCNC(=N)N)C(N)=O)cccc12 [Dansyl-SNR-amide] (Dansyl-Ser-Asn-Arg-NH2)', 'Relative Binding Index (RBI)', '18 a.u.'),
  ('CN(C)c1cccc2c(S(=O)(=O)N[C@@H](CO)C(=O)N[C@@H](CC(=O)O)C(=O)N[C@@H](CCCNC(=N)N)C(N)=O)cccc12 [Dansyl-SDR-amide] (Dansyl-Ser-Asp-Arg-NH2)', 'Relative Binding Index (RBI)', '−2 a.u.');

====

# Relative Binding Index (RBI) values compiled below
Tested on: receptor labeled by the radioiodinated analogue of 1 (4, [125I]-YLFQPQRF-NH2); neuropeptide FF receptor
Experiment: Competitive radioligand binding against 4 ([125I]Y8F-amide)
Conditions: mixture-based positional scanning; difference from averaged radioligand displacement of whole library (0); about 80 a.u. = 10-fold change in Ki
Peptide text beside a SMILES is read from it. * marks the point of attachment. Dansyl = CN(C)c1cccc2c(S(=O)(=O)*)cccc12
QUANTITY_KIND: Relative Binding Index (RBI) (a.u.)

INSERT INTO measurements (molecule, assay_result) VALUES
  ('C[C@@H](O)[C@H](NS(=O)(=O)c1cccc2c(N(C)C)cccc12)C(=O)N[C@@H](CCCNC(=N)N)C(=O)N[C@@H](CCCNC(=N)N)C(N)=O [Dansyl-TRR-amide] (Dansyl-Thr-Arg-Arg-NH2)', '−10'),
  ('C[C@H](NS(=O)(=O)c1cccc2c(N(C)C)cccc12)C(=O)N[C@@H](Cc1ccc(O)cc1)C(=O)N[C@@H](CCCNC(=N)N)C(N)=O [Dansyl-AYR-amide] (Dansyl-Ala-Tyr-Arg-NH2)', 11),
  ('CC(C)C[C@H](NS(=O)(=O)c1cccc2c(N(C)C)cccc12)C(=O)N[C@@H](CO)C(=O)N[C@@H](CCCNC(=N)N)C(N)=O [Dansyl-LSR-amide] (Dansyl-Leu-Ser-Arg-NH2)', '−11'),
  ('C[C@H](NC(=O)[C@H](Cc1ccc(O)cc1)NS(=O)(=O)c1cccc2c(N(C)C)cccc12)C(=O)N[C@@H](CCCNC(=N)N)C(N)=O [Dansyl-YAR-amide] (Dansyl-Tyr-Ala-Arg-NH2)', '−42'),
  ('CC[C@H](C)[C@H](NS(=O)(=O)c1cccc2c(N(C)C)cccc12)C(=O)N[C@@H](CC(C)C)C(=O)N[C@@H](CCCNC(=N)N)C(N)=O [Dansyl-ILR-amide] (Dansyl-Ile-Leu-Arg-NH2)', '−19');

====

Test system: receptor labeled by the radioiodinated analogue of 1 (4, [125I]-YLFQPQRF-NH2); neuropeptide FF receptor
Assay: Competitive radioligand binding against 4 ([125I]Y8F-amide)
Details: mixture-based positional scanning; difference from averaged radioligand displacement of whole library (0); about 80 a.u. = 10-fold change in Ki
Peptide text beside a SMILES is read from it. * marks the point of attachment. Dansyl = CN(C)c1cccc2c(S(=O)(=O)*)cccc12
Could you please classify the records by Relative Binding Index (RBI) using these ranges: low group = under -30 a.u., middle group = from -30 a.u. up to 10 a.u., high group = 10 a.u. and over

INSERT INTO measurements (compound, assigned_label) VALUES
  ('CN(C)c1cccc2c(S(=O)(=O)N[C@@H](Cc3ccc(O)cc3)C(=O)N[C@@H](Cc3ccccc3)C(=O)N[C@@H](CCCNC(=N)N)C(N)=O)cccc12 [Dansyl-YFR-amide] (Dansyl-Tyr-Phe-Arg-NH2)', 'middle group'),
  ('C[C@H](NC(=O)[C@H](CCCNC(=N)N)NS(=O)(=O)c1cccc2c(N(C)C)cccc12)C(=O)N[C@@H](CCCNC(=N)N)C(N)=O [Dansyl-RAR-amide] (Dansyl-Arg-Ala-Arg-NH2)', 'low group'),
  ('C[C@@H](O)[C@H](NS(=O)(=O)c1cccc2c(N(C)C)cccc12)C(=O)N[C@@H](CCC(=O)O)C(=O)N[C@@H](CCCNC(=N)N)C(N)=O [Dansyl-TER-amide] (Dansyl-Thr-Glu-Arg-NH2)', 'middle group'),
  ('CN(C)c1cccc2c(S(=O)(=O)N[C@@H](CCC(N)=O)C(=O)N[C@@H](CCC(N)=O)C(=O)N[C@@H](CCCNC(=N)N)C(N)=O)cccc12 [Dansyl-QQR-amide, dansyl-Gln-Gln-Arg-NH2] (Dansyl-Gln-Gln-Arg-NH2)', 'high group'),
  ('CN(C)c1cccc2c(S(=O)(=O)N3CCCC3C(=O)NC(CCC(N)=O)C(=O)NC(CCCNC(=N)N)C(N)=O)cccc12 (stereo not drawn) [Compound 3, Dansyl-Pro-Gln-Arg-NH2, reference compound] (Dansyl-Pro-Gln-Arg-NH2; configuration not given here)', 'low group'),
  ('C[C@H](NS(=O)(=O)c1cccc2c(N(C)C)cccc12)C(=O)N[C@@H](CCCNC(=N)N)C(=O)N[C@@H](CCCNC(=N)N)C(N)=O [Dansyl-ARR-amide] (Dansyl-Ala-Arg-Arg-NH2)', 'high group'),
  ('CN(C)c1cccc2c(S(=O)(=O)N3CCC[C@H]3C(=O)N[C@@H](CCCNC(=N)N)C(=O)N[C@@H](CCCNC(=N)N)C(N)=O)cccc12 [Dansyl-PRR-amide]', 'low group'),
  ('CC[C@H](C)[C@H](NC(=O)[C@@H](NS(=O)(=O)c1cccc2c(N(C)C)cccc12)[C@@H](C)CC)C(=O)N[C@@H](CCCNC(=N)N)C(N)=O [Dansyl-IIR-amide] (Dansyl-Ile-Ile-Arg-NH2)', 'middle group'),
  ('CN(C)c1cccc2c(S(=O)(=O)NCC(=O)N[C@@H](Cc3ccccc3)C(=O)N[C@@H](CCCNC(=N)N)C(N)=O)cccc12 [Dansyl-GFR-amide] (Dansyl-Gly-Phe-Arg-NH2)', 'high group');

====

Tested on: receptor labeled by the radioiodinated analogue of 1 (4, [125I]-YLFQPQRF-NH2); neuropeptide FF receptor
Experiment: Competitive radioligand binding against 4 ([125I]Y8F-amide)
Settings: mixture-based positional scanning; difference from averaged radioligand displacement of whole library (0); about 80 a.u. = 10-fold change in Ki
Peptide text beside a SMILES is read from it. * marks the point of attachment. Dansyl = CN(C)c1cccc2c(S(=O)(=O)*)cccc12
Cut-off 10 a.u. on Relative Binding Index (RBI), inclusive. At or above means MET; below means NOT MET.

INSERT INTO results (compound, assigned_label) VALUES
  ('CN(C)c1cccc2c(S(=O)(=O)N[C@@H](CO)C(=O)N[C@@H](CCCCN)C(=O)N[C@@H](CCCNC(=N)N)C(N)=O)cccc12 [Dansyl-SKR-amide] (Dansyl-Ser-Lys-Arg-NH2)', 'MET'),
  ('CSCC[C@H](NS(=O)(=O)c1cccc2c(N(C)C)cccc12)C(=O)N[C@@H](Cc1ccccc1)C(=O)N[C@@H](CCCNC(=N)N)C(N)=O [Dansyl-MFR-amide] (Dansyl-Met-Phe-Arg-NH2)', 'NOT MET'),
  ('CN(C)c1cccc2c(S(=O)(=O)N[C@@H](CCC(N)=O)C(=O)N[C@@H](CO)C(=O)N[C@@H](CCCNC(=N)N)C(N)=O)cccc12 [Dansyl-QSR-amide, dansyl-Gln-Ser-Arg-NH2] (Dansyl-Gln-Ser-Arg-NH2)', 'MET'),
  ('CN(C)c1cccc2c(S(=O)(=O)N3CCC[C@H]3C(=O)N[C@@H](CCC(=O)O)C(=O)N[C@@H](CCCNC(=N)N)C(N)=O)cccc12 [Dansyl-PER-amide] (Dansyl-Pro-Glu-Arg-NH2)', 'NOT MET'),
  ('CN(C)c1cccc2c(S(=O)(=O)N[C@@H](Cc3cnc[nH]3)C(=O)N[C@@H](CCCCN)C(=O)N[C@@H](CCCNC(=N)N)C(N)=O)cccc12 [Dansyl-HKR-amide] (Dansyl-His-Lys-Arg-NH2)', 'MET'),
  ('CC[C@H](C)[C@H](NC(=O)[C@H](CO)NS(=O)(=O)c1cccc2c(N(C)C)cccc12)C(=O)N[C@@H](CCCNC(=N)N)C(N)=O [Dansyl-SIR-amide] (Dansyl-Ser-Ile-Arg-NH2)', 'MET'),
  ('C[C@H](NS(=O)(=O)c1cccc2c(N(C)C)cccc12)C(=O)N[C@@H](CO)C(=O)N[C@@H](CCCNC(=N)N)C(N)=O [Dansyl-ASR-amide] (Dansyl-Ala-Ser-Arg-NH2)', 'MET'),
  ('CN(C)c1cccc2c(S(=O)(=O)N[C@@H](Cc3ccccc3)C(=O)N3CCC[C@H]3C(=O)N[C@@H](CCCNC(=N)N)C(N)=O)cccc12 [Dansyl-FPR-amide]', 'MET'),
  ('CN(C)c1cccc2c(S(=O)(=O)N[C@@H](CO)C(=O)N[C@@H](CCC(=O)O)C(=O)N[C@@H](CCCNC(=N)N)C(N)=O)cccc12 [Dansyl-SER-amide] (Dansyl-Ser-Glu-Arg-NH2)', 'MET'),
  ('CC[C@H](C)[C@H](NS(=O)(=O)c1cccc2c(N(C)C)cccc12)C(=O)N[C@H](C(=O)N[C@@H](CCCNC(=N)N)C(N)=O)C(C)C [Dansyl-IVR-amide] (Dansyl-Ile-Val-Arg-NH2)', 'NOT MET'),
  ('C[C@H](NC(=O)[C@H](C)NS(=O)(=O)c1cccc2c(N(C)C)cccc12)C(=O)N[C@@H](CCCNC(=N)N)C(N)=O [Dansyl-AAR-amide] (Dansyl-Ala-Ala-Arg-NH2)', 'NOT MET'),
  ('CC[C@H](C)[C@H](NS(=O)(=O)c1cccc2c(N(C)C)cccc12)C(=O)N[C@@H](CCCNC(=N)N)C(=O)N[C@@H](CCCNC(=N)N)C(N)=O [Dansyl-IRR-amide] (Dansyl-Ile-Arg-Arg-NH2)', 'NOT MET'),
  ('CN(C)c1cccc2c(S(=O)(=O)N[C@@H](CO)C(=O)N[C@@H](Cc3ccc(O)cc3)C(=O)N[C@@H](CCCNC(=N)N)C(N)=O)cccc12 [Dansyl-SYR-amide] (Dansyl-Ser-Tyr-Arg-NH2)', 'MET'),
  ('C[C@@H](O)[C@H](NC(=O)CNS(=O)(=O)c1cccc2c(N(C)C)cccc12)C(=O)N[C@@H](CCCNC(=N)N)C(N)=O [Dansyl-GTR-amide] (Dansyl-Gly-Thr-Arg-NH2)', 'MET'),
  ('CC(C)[C@H](NC(=O)[C@H](CO)NS(=O)(=O)c1cccc2c(N(C)C)cccc12)C(=O)N[C@@H](CCCNC(=N)N)C(N)=O [Dansyl-SVR-amide] (Dansyl-Ser-Val-Arg-NH2)', 'MET'),
  ('CSCC[C@H](NC(=O)[C@@H](NS(=O)(=O)c1cccc2c(N(C)C)cccc12)C(C)C)C(=O)N[C@@H](CCCNC(=N)N)C(N)=O [Dansyl-VMR-amide] (Dansyl-Val-Met-Arg-NH2)', 'NOT MET'),
  ('CN(C)c1cccc2c(S(=O)(=O)N[C@@H](CCC(=O)O)C(=O)N[C@@H](CC(=O)O)C(=O)N[C@@H](CCCNC(=N)N)C(N)=O)cccc12 [Dansyl-EDR-amide] (Dansyl-Glu-Asp-Arg-NH2)', 'NOT MET'),
  ('CSCC[C@H](NS(=O)(=O)c1cccc2c(N(C)C)cccc12)C(=O)N[C@@H](CO)C(=O)N[C@@H](CCCNC(=N)N)C(N)=O [Dansyl-MSR-amide] (Dansyl-Met-Ser-Arg-NH2)', 'NOT MET'),
  ('CN(C)c1cccc2c(S(=O)(=O)N[C@@H](Cc3ccc(O)cc3)C(=O)N[C@@H](Cc3cnc[nH]3)C(=O)N[C@@H](CCCNC(=N)N)C(N)=O)cccc12 [Dansyl-YHR-amide] (Dansyl-Tyr-His-Arg-NH2)', 'NOT MET');
